Biological target: human Fatty Acid Synthase (Homo sapiens, UniProt P49327)
Construct: made in house
Sequence (P49327 whole entry): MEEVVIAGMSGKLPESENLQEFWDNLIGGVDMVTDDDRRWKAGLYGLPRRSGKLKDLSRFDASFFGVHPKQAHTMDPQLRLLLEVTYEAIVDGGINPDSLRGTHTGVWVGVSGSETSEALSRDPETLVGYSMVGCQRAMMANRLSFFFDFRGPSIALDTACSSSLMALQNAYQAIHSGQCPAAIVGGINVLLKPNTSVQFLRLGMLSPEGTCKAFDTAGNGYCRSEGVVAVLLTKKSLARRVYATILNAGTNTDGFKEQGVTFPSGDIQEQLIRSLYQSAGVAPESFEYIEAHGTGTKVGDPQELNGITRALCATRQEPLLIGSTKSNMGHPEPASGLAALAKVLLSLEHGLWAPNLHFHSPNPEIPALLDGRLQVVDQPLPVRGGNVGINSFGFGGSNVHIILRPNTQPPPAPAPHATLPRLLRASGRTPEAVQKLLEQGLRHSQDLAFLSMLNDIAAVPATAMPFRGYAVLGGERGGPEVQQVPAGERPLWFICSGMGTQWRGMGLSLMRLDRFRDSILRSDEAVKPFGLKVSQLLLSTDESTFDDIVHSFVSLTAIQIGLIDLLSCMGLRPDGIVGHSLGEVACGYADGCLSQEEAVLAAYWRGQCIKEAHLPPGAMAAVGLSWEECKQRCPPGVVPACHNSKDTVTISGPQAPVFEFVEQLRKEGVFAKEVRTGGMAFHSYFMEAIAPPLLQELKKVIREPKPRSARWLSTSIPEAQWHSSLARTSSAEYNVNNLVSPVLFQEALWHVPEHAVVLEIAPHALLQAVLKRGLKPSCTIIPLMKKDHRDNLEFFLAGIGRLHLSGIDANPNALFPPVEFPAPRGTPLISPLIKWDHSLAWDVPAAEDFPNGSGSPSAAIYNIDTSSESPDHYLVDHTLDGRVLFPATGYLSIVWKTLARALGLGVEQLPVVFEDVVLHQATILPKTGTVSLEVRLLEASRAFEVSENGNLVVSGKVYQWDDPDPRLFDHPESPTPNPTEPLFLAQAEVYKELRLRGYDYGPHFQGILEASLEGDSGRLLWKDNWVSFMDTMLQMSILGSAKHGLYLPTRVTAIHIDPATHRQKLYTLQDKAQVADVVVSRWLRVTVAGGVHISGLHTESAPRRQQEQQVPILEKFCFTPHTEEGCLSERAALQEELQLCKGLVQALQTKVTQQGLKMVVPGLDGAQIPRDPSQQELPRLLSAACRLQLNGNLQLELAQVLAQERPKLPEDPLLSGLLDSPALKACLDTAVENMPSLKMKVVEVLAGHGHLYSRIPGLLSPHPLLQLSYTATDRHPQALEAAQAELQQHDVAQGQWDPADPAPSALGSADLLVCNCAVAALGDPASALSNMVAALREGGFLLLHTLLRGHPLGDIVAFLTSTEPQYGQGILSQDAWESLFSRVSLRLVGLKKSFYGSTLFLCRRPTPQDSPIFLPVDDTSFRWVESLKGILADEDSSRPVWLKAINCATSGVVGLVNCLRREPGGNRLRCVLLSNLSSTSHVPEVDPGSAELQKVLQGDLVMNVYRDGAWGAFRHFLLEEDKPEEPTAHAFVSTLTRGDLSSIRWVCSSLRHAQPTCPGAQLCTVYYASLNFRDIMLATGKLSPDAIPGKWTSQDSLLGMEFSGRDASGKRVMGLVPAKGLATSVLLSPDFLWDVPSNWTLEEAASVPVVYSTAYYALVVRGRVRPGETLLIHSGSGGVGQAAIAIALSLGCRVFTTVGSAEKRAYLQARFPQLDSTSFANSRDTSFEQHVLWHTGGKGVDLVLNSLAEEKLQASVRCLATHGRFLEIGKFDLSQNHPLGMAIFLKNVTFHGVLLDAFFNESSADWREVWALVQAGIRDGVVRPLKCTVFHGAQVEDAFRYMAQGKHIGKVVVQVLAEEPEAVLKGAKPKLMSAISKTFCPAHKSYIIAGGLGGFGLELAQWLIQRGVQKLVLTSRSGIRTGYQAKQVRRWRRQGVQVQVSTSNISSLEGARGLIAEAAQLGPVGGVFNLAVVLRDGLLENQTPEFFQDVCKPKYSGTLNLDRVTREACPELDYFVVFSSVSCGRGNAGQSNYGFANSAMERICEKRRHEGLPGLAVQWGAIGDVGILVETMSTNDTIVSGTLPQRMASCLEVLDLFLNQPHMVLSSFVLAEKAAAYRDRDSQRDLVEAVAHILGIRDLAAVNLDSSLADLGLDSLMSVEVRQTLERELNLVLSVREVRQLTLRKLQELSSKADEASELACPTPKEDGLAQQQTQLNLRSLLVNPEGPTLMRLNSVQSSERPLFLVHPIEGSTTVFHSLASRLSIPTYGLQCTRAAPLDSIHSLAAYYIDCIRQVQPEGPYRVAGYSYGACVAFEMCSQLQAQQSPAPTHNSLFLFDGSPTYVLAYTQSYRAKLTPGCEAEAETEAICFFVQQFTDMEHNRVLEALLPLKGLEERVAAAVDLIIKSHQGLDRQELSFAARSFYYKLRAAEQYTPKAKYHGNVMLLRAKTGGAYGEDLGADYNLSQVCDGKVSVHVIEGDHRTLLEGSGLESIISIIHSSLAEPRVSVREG
Experiment: Human FAS enzyme assay (decrease in NADPH fluorescence)
Assay type: biochemical
Details: % inhibition at a concentration of 100 μmolar
Label condition not met if inhibition at 100 µM falls below 90%; label condition met in every other case.

Illustrative cases are given below, each with its answer.
[
  {
    "Molecule": "CNC(=O)c1ccc(C2CCN(C(=O)c3ccc(C)c(NC(=O)NC(C)C)c3)CC2)cc1 [Example 329]",
    "Cat": "condition not met"
  },
  {
    "Molecule": "Cc1ccc(C(=O)N2CCC(c3ccc(C(F)(F)F)cc3)CC2)cc1NC(=O)NCCNS(C)(=O)=O [Example 341]",
    "Cat": "condition met"
  },
  {
    "Molecule": "CCC(=O)N1CC[C@@H](NC(=O)Nc2cc(C(=O)N3CCC(c4ccc(C#N)cc4)CC3)ccc2C)C1 [Example 276]",
    "Cat": "condition met"
  }
]

Alright, here's another molecule for you.
## Task Could you please find out whether Cc1ccc(C(=O)N2CCC(c3ccc(C#N)cc3)CC2)cc1NC(=O)NCCNC(=O)C(=O)O [Example 104] has inhibition at 100 µM that meets 90% or exceeds it?
## Result condition not met

###

Target: human Fatty Acid Synthase (Homo sapiens, UniProt P49327)
Construct: made in house
Assay: Human FAS enzyme assay (decrease in NADPH fluorescence)
Format: biochemical
Conditions: % inhibition at a concentration of 100 μmolar
Description: Human and Rat FAS Enzyme Assay. Fatty acid synthase is an enzyme complex that harbours seven enzymatic activities catalysing the reductive synthesis of long chain fatty acids from acetyl CoA and malonyl CoA to palmitate. When acetyl CoA and malonyl CoA are forming palmitate NADPH is consumed forming NADP. Since NADPH is fluorescent but not NADP the reaction can be measured by analysing the decrease in fluorescence. […]
Label No if inhibition at 100 µM falls below 90%; label Yes in every other case.

Illustrative cases are given below, each with its answer.
[
  {
    "Molecule": "Cc1ccc(C(=O)N2CCC(c3ccc(C#N)cc3)CC2)cc1NC(=O)NC1(C)CCS(=O)(=O)C1 (stereo not shown)",
    "Cat": "No"
  },
  {
    "Molecule": "COc1ccccc1CCNC(=O)Nc1cc(C(=O)N2CCC(c3ccc(C#N)cc3)CC2)ccc1C",
    "Cat": "No"
  }
]

## Task Could you please find out whether `Cc1ccc(NC(=O)NCc2ccccc2F)cc1C(=O)N1CCC(c2ccc(C#N)cc2)CC1` has inhibition at 100 µM that meets 90% or exceeds it?
## Result No

## Task Could you please find out whether `Cc1ccc(C(=O)N2CCC(c3ccc(C#N)cc3)CC2)cc1NC(=O)NCCCNC(=O)C(C)C` has inhibition at 100 µM that meets 90% or exceeds it?
## Result No

## Task Could you please find out whether Cc1ccc(C(=O)N2CCC(c3ccc(C#N)cc3)CC2)cc1NC(=O)N1CCC(S(C)(=O)=O)C1 (stereo not shown) has inhibition at 100 µM that meets 90% or exceeds it?
## Result Yes

###

Target: human Fatty Acid Synthase (Homo sapiens)
Construct: made in house
Experiment: Human FAS enzyme assay (decrease in NADPH fluorescence)
Assay type: biochemical
Conditions: % inhibition at a concentration of 100 μmolar
Measured endpoint: inhibition at 100 µM (%)
Note: unit % is implicit; provide only the numeric part.

[
  {
    "Compound": "Cc1ccc(C(=O)N2CCC(c3ccc(C#N)cc3)CC2)cc1NC(=O)NCc1cccc(C#N)c1",
    "Measured endpoint": "inhibition at 100 µM",
    "Display unit": "%",
    "Experimental value": 91.8
  },
  {
    "Compound": "Cc1ccc(C(=O)N2CCC(c3ccc(C#N)cc3)CC2)cc1NC(=O)N1CCN(C(=O)C(C)C)CC1",
    "Measured endpoint": "inhibition at 100 µM",
    "Display unit": "%",
    "Experimental value": 84.2
  },
  {
    "Compound": "Cc1ccc(C(=O)N2CCC(c3ccc(C#N)cc3)CC2)cc1NC(=O)N[C@H]1CCCC[C@H]1N (relative stereo)",
    "Measured endpoint": "inhibition at 100 µM",
    "Display unit": "%",
    "Experimental value": 92.8
  },
  {
    "Compound": "CCS(=O)(=O)N[C@@H]1CCCC[C@@H]1NC(=O)Nc1cc(C(=O)N2CCC(c3ccc(C#N)cc3)CC2)ccc1C (relative stereo)",
    "Measured endpoint": "inhibition at 100 µM",
    "Display unit": "%",
    "Experimental value": 96.7
  },
  {
    "Compound": "Cc1ccc(C(=O)N2CCC(c3ccc(C#N)cc3)CC2)cc1NC(=O)NCC1CCCO1 (stereo not drawn)",
    "Measured endpoint": "inhibition at 100 µM",
    "Display unit": "%",
    "Experimental value": 92.1
  },
  {
    "Compound": "Cc1ccc(C(=O)N2CCC(c3ccc(C#N)cc3)CC2)cc1NC(=O)N1CCN(S(C)(=O)=O)CC1",
    "Measured endpoint": "inhibition at 100 µM",
    "Display unit": "%",
    "Experimental value": 90.5
  },
  {
    "Compound": "C#CCNC(=O)Nc1cc(C(=O)N2CCC(c3ccc(C#N)cc3)CC2)c(C)cc1C",
    "Measured endpoint": "inhibition at 100 µM",
    "Display unit": "%",
    "Experimental value": 101
  },
  {
    "Compound": "CCNC(=O)Nc1ccc(C)c(C(=O)N2CCC(c3ccc(C#N)cc3)CC2)c1",
    "Measured endpoint": "inhibition at 100 µM",
    "Display unit": "%",
    "Experimental value": 79.9
  }
]

## Task For `Cc1ccc(C(=O)N2CCC(c3ccc(C#N)cc3)CC2)cc1NC(=O)NCCCN(C)C` , write its inhibition at 100 µM.
## Result 83.7

## Task For `Cc1ccc(C(=O)N2CCC(c3ccc(C#N)cc3)CC2)cc1NC(=O)NCC(=O)O` , write its inhibition at 100 µM.
## Result 95.7

## Task For `Cc1ccc(C(=O)N2CCC(c3ccc(C#N)cc3)CC2)cc1NC(=O)NCCCN1CCN(C)CC1` , write its inhibition at 100 µM.
## Result 79.2

## Task For `Cc1ccc(C(=O)N2CCC(c3ccc(C#N)cc3)CC2)cc1NC(=O)NC1CCN(S(C)(=O)=O)CC1` , write its inhibition at 100 µM.
## Result 99.7

## Task For `CCS(=O)(=O)NCCCNC(=O)Nc1cc(C(=O)N2CCC(c3ccc(C#N)cc3)CC2)ccc1C` , write its inhibition at 100 µM.
## Result 92.4

## Task For `Cc1ccc(C(=O)N2CCC(c3ccc(C#N)cc3)CC2)cc1NC(=O)NCc1cccc(N2CCOCC2)n1` , write its inhibition at 100 µM.
## Result 93.2

## Task For `Cc1ccc(C(=O)N2CCC(c3ccc(C#N)cc3)CC2)cc1NC(=O)NCCCC(=O)O` , write its inhibition at 100 µM.
## Result 104

Origin of the recorded values: patent US20090118332A1
